- EXPERIMENT_NOTES: Mouse PK study (IV and PO)
- Assay type: in vivo
- RUN_PARAMETERS: male, C57BL/6, mouse, plasma, male C57BL/6 mice, IV 2 mg/kg and PO 10 mg/kg study
QUANTITY_NAME: AUC(0-inf) (ng·h/mL)
API: value field is a number in ng·h/mL; no unit string.

Known results for compounds:
| STRUCTURE_NOTATION | QUANTITY_NAME | UNIT_ABBREVIATION | READING |
| --- | --- | --- | --- |
| CCc1nc2ccc(-c3cnc(N4CCN(C(=O)C5(CO)CC5)CC4)nc3)cn2c1N(C)c1nc(-c2ccc(F)cc2)c(C#N)s1 | AUC(0-inf) | ng·h/mL | 26700 |
| CCc1nc2ccc(-c3cnc(N4CCN(C(=O)C5(O)CC5)CC4)nc3)cn2c1N(C)c1nc(-c2ccc(F)cc2)c(C#N)s1 | AUC(0-inf) | ng·h/mL | 35100 |
| CCc1nc2ccc(-c3ccc(N4CCC(C(=O)N5CC(O)C5)CC4)nc3)cn2c1N(C)c1nc(-c2ccc(F)cc2)c(C#N)s1 | AUC(0-inf) | ng·h/mL | 50500 |

Now consider a different compound.
[in] Determine its reported AUC(0-inf): CCc1nc2ccc(-c3cnc(N4CCC(C(=O)N5CCCC5)CC4)nc3)cn2c1N(C)c1nc(-c2ccc(F)cc2)c(C#N)s1
[out] 37100

###

- ASSAYED_TARGET: hATX/ENPP2 (Homo sapiens, UniProt Q13822)
- EXPERIMENT_NOTES: hATX/ENPP2 biochemical assay using 16:0-LPC as substrate (Amplex Red/choline oxidase/HRP fluorescence)
- RUN_PARAMETERS: hENPP2 2.5 nM, LPC (16:0) substrate
Measured IC50 accompanies every entry in the list below.

Known results for molecules:
| STRUCTURE_NOTATION | ASSAYED_TARGET | IC50 |
| --- | --- | --- |
| CCc1nc2ccc(-c3cnc(NC4CCN(C(=O)C5(O)CC5)CC4)nc3)cn2c1N(C)c1nc(-c2ccc(F)cc2)c(C#N)s1 | hATX/ENPP2 (Homo sapiens, UniProt Q13822) | 20 to 200 nM |
| CCc1nc2ccc(-c3cnc(C(=O)N4CC(NC5CCC5)C4)nc3)cn2c1N(C)c1nc(-c2ccc(F)cc2)c(C#N)s1 | hATX/ENPP2 (Homo sapiens, UniProt Q13822) | > 200 nM |

[in] Determine its reported IC50: CCc1nc2ccc(-c3cnc(N4CCC(NC(=O)[C@@H]5C[C@H](O)CN5)CC4)nc3)cn2c1N(C)c1nc(-c2ccc(F)cc2)c(C#N)s1
[out] ≤ 20 nM

###

- EXPERIMENT_NOTES: Mouse PK study (IV and PO)
- Format: in vivo
- RUN_PARAMETERS: male, C57BL/6, mouse, plasma, male C57BL/6 mice, IV 2 mg/kg and PO 10 mg/kg study
Categorized via AUC(0-inf): bucket 1 = under 30000 ng·h/mL, bucket 2 = from 30000 ng·h/mL up to 40000 ng·h/mL, bucket 3 = 40000 ng·h/mL and over

The examples below pair each entry with its known result.
| STRUCTURE_NOTATION | ANSWER_LABEL |
| --- | --- |
| CCc1nc2ccc(-c3cnc(N4CCC(C(=O)N5CCC5)CC4)nc3)cn2c1N(C)c1nc(-c2ccc(F)cc2)c(C#N)s1 | bucket 3 |
| CCc1nc2ccc(-c3ccc(N4CCC(C(=O)N5CCC5)CC4)nc3)cn2c1N(C)c1nc(-c2ccc(F)cc2)c(C#N)s1 | bucket 3 |
| CCc1nc2ccc(-c3cnc(C(=O)N4CCCC4)nc3)cn2c1N(C)c1nc(-c2ccc(F)cc2)c(C#N)s1 | bucket 3 |
| CCc1nc2ccc(-c3cnc(N4CC(NC5(CO)CC5)C4)nc3)cn2c1N(C)c1nc(-c2ccc(F)cc2)c(C#N)s1 | bucket 1 |
| CCc1nc2ccc(-c3ccc(N4CCN(C(=O)N5CC[C@@H](O)C5)CC4)nc3)cn2c1N(C)c1nc(-c2ccc(F)cc2)c(C#N)s1 | bucket 1 |

[in] Which category does the recorded AUC(0-inf) put CCc1nc2ccc(-c3cnc(N4CCN(C(=O)N5CC[C@@H](O)C5)CC4)nc3)cn2c1N(C)c1nc(-c2ccc(F)cc2)c(C#N)s1 in?
[out] bucket 2

[in] Which category does the recorded AUC(0-inf) put CCc1nc2ccc(-c3ccc(N4CCC(C(=O)N5CC[C@@H](O)C5)CC4)nc3)cn2c1N(C)c1nc(-c2ccc(F)cc2)c(C#N)s1 in?
[out] bucket 2

[in] Which category does the recorded AUC(0-inf) put CCc1nc2ccc(-c3cnc(N4CCN(C(=O)C5(C#N)CC5)CC4)nc3)cn2c1N(C)c1nc(-c2ccc(F)cc2)c(C#N)s1 in?
[out] bucket 1

###

- ASSAYED_TARGET: hATX/ENPP2 (Homo sapiens, UniProt Q13822)
- EXPERIMENT_NOTES: hATX/ENPP2 biochemical assay using 16:0-LPC as substrate (Amplex Red/choline oxidase/HRP fluorescence)
- RUN_PARAMETERS: hENPP2 2.5 nM, LPC (16:0) substrate
pIC50: −log10 of the molar value. Structures can show the parent of a compound that is named as a salt.
QUANTITY_NAME: pIC50

Known results for compounds:
| COMPOUND | READING |
| --- | --- |
| CCc1nc2ccc(-c3cnc(NCC4CNC4)nc3)cn2c1N(C)c1nc(-c2ccc(F)cc2)c(C#N)s1 [38 (formate salt)] | < 6.70 |
| CCc1nc2ccc(-c3cnc(N4CCC(NC5CNC5)CC4)nc3)cn2c1N(C)c1nc(-c2ccc(F)cc2)c(C#N)s1 [Compound 68 formate] | ≥ 7.70 |
| CCc1nc2ccc(-c3cnc(N4CC(NC5(CO)CC5)C4)nc3)cn2c1N(C)c1nc(-c2ccc(F)cc2)c(C#N)s1 [Compound 30] | 6.70 to 7.70 |
| CCc1nc2ccc(-c3cnc(CC(=O)NC4CC4)nc3)cn2c1N(C)c1nc(-c2ccc(F)cc2)c(C#N)s1 [Compound 62] | 6.70 to 7.70 |
| CCc1nc2ccc(-c3cnc(N4CC(NC(=O)C5(O)CC5)C4)nc3)cn2c1N(C)c1nc(-c2ccc(F)cc2)c(C#N)s1 [Compound 31] | 6.70 to 7.70 |
| CCc1nc2ccc(-c3ccc(N4CCN(C(=O)[C@@H]5C[C@@H](O)CN5)CC4)nc3)cn2c1N(C)c1nc(-c2ccc(F)cc2)c(C#N)s1 [Compound 95] | ≥ 7.70 |

[in] Determine its reported pIC50: CCc1nc2ccc(-c3cnc(N4CCC(C(=O)NC5CNC5)CC4)nc3)cn2c1N(C)c1nc(-c2ccc(F)cc2)c(C#N)s1 [Compound 72 hydrochloride]
[out] ≥ 7.70
